B1: C9orf9 (parent)
chain: TKHKCRQLTKASLKPRGCSKPPWR

variants of: B1; experiment: protein stability index of a GFP-peptide fusion (GPS, HEK-293T) (PSI 1-6); higher = more stable; settings: c terminus: a fixed tail appended;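 further: lentivirally expressed fusions sorted by FACS into six bins by GFP to DsRed ratio, PSI derived from sequencing read proportions per bin multiplied by bin number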
// label = Met if protein stability index is not less than 3, otherwise Not met

C18Q; Met
G17S; Not met
A11W; Not met
G17Q; Met
G17Y; Not met
T1F; Met
K14F; Not met
R24C; Not met
R6G; Met
K20I; Not met
K4P; Not met
T9P; Met
P15C; Not met
S12C; Not met
P21E; Not met
K2G; Met
R24P; Not met
S12L; Not met
Q7T; Not met
S19P; Not met
P21G; Not met
S19Y; Not met
P22Y; Not met
K14Q; Not met
R6H; Met
R24N; Not met
S19Q; Not met
S12E; Not met
T1K; Not met
K2S; Met
L13A; Met
T1M; Not met
A11L; Not met
C5Y; Not met
R24L; Not met
K2M; Not met
W23H; Met
K20Q; Not met
S12D; Not met
P15Y; Not met
T1W; Not met
C5F; Not met
W23E; Met
H3T; Not met
A11C; Not met
K20S; Not met
L8R; Met
Q7I; Not met
C5T; Not met
S19L; Met
T9S; Not met
L13F; Not met
W23S; Not met
